Entry source: PubChem BioAssay (NCI)

Test system: OVCAR-3 ovarian
assay_text: NCI-60 one-dose screen, 48 h (100 = growth as untreated, 0 = no growth, -100 = all killed)
test_settings: 10 µM unless noted
Method: Growth inhibition of the OVCAR-3 human tumor cell line is measured as a screen for anti-cancer activity. Cells are grown in 96 well plates and exposed to the test compound for 48 hours. Compounds are tested at a single concentration, which is 10^-5 M for most compounds. The reported endpoint is percent growth (GI% or GIPRCNT), where numbers from 0 - 100% represent growth inhibition, and numbers from -100% - 0 represent cell death. For example, a value of 40 represents 60% growth inhibition. […]
This is part of a sample that, as a whole, favours compounds with a hit. Of some 83,000 tested, about 20% had one in any assay.
property: growth (%)

{"molecule": "CC(C)(C)c1ccc(S(=O)(=O)O)s1", "recorded_measurement": 115}
{"molecule": "COc1cc(/C=C/c2nnc(-c3cc(-c4ccccc4)n[nH]3)o2)cc(OC)c1OC", "recorded_measurement": 107}
{"molecule": "CC(=O)Oc1c(C)c(OC(C)=O)c2c(c1C(C)=O)OC1CC(=O)C(C(C)=O)=C(O)C21C (stereo not given)", "recorded_measurement": 118}
{"molecule": "CC[C@@H]1OC(=O)[C@H](C)[C@@H](O[C@H]2C[C@@](C)(OC)[C@@H](O)[C@H](C)O2)[C@H](C)[C@@H](O[C@@H]2O[C@H](C)C[C@H](N(C)C)[C@H]2O)[C@](C)(O)C[C@@H](C)[C@@H]2N[C@@H](COCCOC)O[C@H]([C@H]2C)[C@]1(C)O", "recorded_measurement": 124}
{"molecule": "O=C1NCN(c2ccccc2)C12CCN(CCCC(c1ccc(F)cc1)c1ccc(F)cc1)CC2", "recorded_measurement": 66.8}
{"molecule": "O=C(Nc1ccc(Nc2ccncc2)cc1)c1ccc(Nc2ccnc3ccc([N+](=O)[O-])cc23)cc1[N+](=O)[O-]", "recorded_measurement": 98.1}
{"molecule": "O=C(NN(C(=O)c1ccccc1)c1cccs1)c1ccccc1", "recorded_measurement": 115}
{"molecule": "CN1C(=O)C(=Cc2cn(Cc3ccccc3)c3ccc(Br)cc23)C(=O)N(C)C1=O", "recorded_measurement": 103}
{"molecule": "Oc1ccc(-c2nn(-c3ccccc3)cc2-c2nc3ccccc3s2)cc1", "recorded_measurement": 85.3}
{"molecule": "O=C(CN1CCCCC1)Sc1nnc2sc3ccccc3n12", "recorded_measurement": 111}
{"molecule": "COc1ccc(-c2c3c(nn2-c2ccc(N)cc2)CCc2cnoc2-3)cc1OC", "recorded_measurement": 83.1}
{"molecule": "CCOC(=O)C1=C(C)N2C(=NC3=C(CCC/C3=C\\c3ccc(Cl)cc3)C2c2ccc(Cl)cc2)S1 (stereo not given)", "recorded_measurement": -29.2}
{"molecule": "O=C(/C=C/c1cc2ccccc2[nH]c1=O)c1ccc(O)cc1", "recorded_measurement": -18.8}
{"molecule": "CCCC[N+](CCCC)=c1ccc2nc3c(C)cc(N(CC)CC)cc3sc-2c1", "recorded_measurement": -23.3}
{"molecule": "O=C(/C(=C/c1cccc([N+](=O)[O-])c1)c1ccccc1)c1ccccc1", "recorded_measurement": 23.4}
{"molecule": "CCOC(=O)C(Cc1ccccc1)(C(=O)OCC)C(Br)C(=O)c1ccccc1 (stereo not given)", "recorded_measurement": 61.3}
{"molecule": "CC(C)[O-].CC(C)[O-].CN(CCN(C)Cc1cc(F)cc(F)c1[O-])Cc1cc(F)cc(F)c1[O-].[Ti+4]", "recorded_measurement": 4.78}
{"molecule": "c1ccc(-c2nnc(Nc3nnc(-c4ccccc4)s3)s2)cc1", "recorded_measurement": 105}
{"molecule": "Cc1cc2c(C#N)n3c(c2cc1C)C(=O)C(c1ccccc1)Oc1ccccc1-3 (stereo not given)", "recorded_measurement": 25.3}
{"molecule": "CCCCCCOc1ccc(/C=N/NC(N)=S)cc1", "recorded_measurement": 28.5}
